TARGET DESC: Tyrosine-protein phosphatase non-receptor type 1 (Homo sapiens, UniProt P18031)
Sequence (P18031 whole entry, the tested form may be a part): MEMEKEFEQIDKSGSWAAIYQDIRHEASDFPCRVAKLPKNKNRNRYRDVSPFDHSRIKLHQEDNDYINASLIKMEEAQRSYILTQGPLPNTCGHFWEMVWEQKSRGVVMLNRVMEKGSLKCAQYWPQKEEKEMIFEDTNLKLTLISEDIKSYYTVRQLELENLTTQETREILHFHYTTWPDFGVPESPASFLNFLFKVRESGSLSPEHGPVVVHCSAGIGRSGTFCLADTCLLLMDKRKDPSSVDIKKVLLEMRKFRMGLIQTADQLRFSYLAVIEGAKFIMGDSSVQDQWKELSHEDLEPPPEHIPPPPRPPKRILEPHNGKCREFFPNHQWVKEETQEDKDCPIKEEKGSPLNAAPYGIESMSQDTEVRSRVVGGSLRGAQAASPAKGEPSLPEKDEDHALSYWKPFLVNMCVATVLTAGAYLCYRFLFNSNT
PROCEDURE SUMMARY: Inhibition of recombinant human PTP1B catalytic domain ([…]) expressed in Escherichia coli BL21-codon plus (DE3) using pNPP as substrate measured continuously for 3 mins by colorimetric method
PARAMETER MEASURED: IC50 (µM)

{"MOLECULE": "CC(C)=CCC/C(C)=C/CC/C(C)=C/Cc1c(O)cc(C)cc1O [GRIFOLIN]", "TARGET DESC": "Tyrosine-protein phosphatase non-receptor type 1 (Homo sapiens, UniProt P18031)", "IC50 [µM]": 5.7}
{"MOLECULE": "Cc1cc(O)cc2c1O[C@H]1OC(C)(C)[C@@H]3CC[C@@](C)(O2)[C@@H]13", "TARGET DESC": "Tyrosine-protein phosphatase non-receptor type 1 (Homo sapiens, UniProt P18031)", "IC50 [µM]": 43.6}
{"MOLECULE": "Cc1cc(O)cc2c1[C@H]1[C@@H]3[C@@H](CC[C@]3(C)O2)C1(C)C", "TARGET DESC": "Tyrosine-protein phosphatase non-receptor type 1 (Homo sapiens, UniProt P18031)", "IC50 [µM]": 58.2}
{"MOLECULE": "C=C(C)[C@@H]1CC[C@]2(C)Oc3cc(O)cc(C)c3[C@H]1[C@H]2O", "TARGET DESC": "Tyrosine-protein phosphatase non-receptor type 1 (Homo sapiens, UniProt P18031)", "IC50 [µM]": 48.1}

P: CC1=CC(=O)C=C2O[C@@]3(C)CC[C@H](C(C)(C)O)[C@H]3[C@H]3O[C@@]123
Q: C=C(C)[C@@H]1CC[C@]2(C)Oc3cc(O)cc(C)c3C[C@H]12
Decide: P or Q , by lowest recorded IC50. # reply format: chosen label
P
(P: 38.1 µM, Q: 61 µM)
